Hello, the source for this data is patent US12612366B2, in case you need it.

- test: Solubility: excess solid in water, pH 1.0 or pH 4.5 buffer, filtrate analyzed by HPLC-UV
- Assay type: physicochemical
- conditions: water, room temperature, suspension dispersed for at least 24, filtered, HPLC-UV; pH given in brackets
Structures can show the parent of a compound that is named as a salt.
property: Water solubility

> print(dat)
                                   compound  endpoint.value
1  COC(=O)N1CCN(Cc2cccc(NC(=O)Nc3ccc(C)nc3)c2F)CC1 [Bis-tartrate crystalline salt form A, omecamtiv mecarbil]   > 53000 µg/mL
2  COC(=O)N1CCN(Cc2cccc(NC(=O)Nc3ccc(C)nc3)c2F)CC1 [Hemi-succinate crystalline salt, omecamtiv mecarbil]      7400 µg/mL
3  COC(=O)N1CCN(Cc2cccc(NC(=O)Nc3ccc(C)nc3)c2F)CC1 [Mono-napadisylate crystalline salt, omecamtiv mecarbil]       300 µg/mL
4  COC(=O)N1CCN(Cc2cccc(NC(=O)Nc3ccc(C)nc3)c2F)CC1 [Bis-sulfate crystalline salt form A, omecamtiv mecarbil]     16000 µg/mL
5  COC(=O)N1CCN(Cc2cccc(NC(=O)Nc3ccc(C)nc3)c2F)CC1 [Bis-sulfate crystalline salt form B, omecamtiv mecarbil]      9000 µg/mL
6  COC(=O)N1CCN(Cc2cccc(NC(=O)Nc3ccc(C)nc3)c2F)CC1 [Bis-fumarate crystalline salt form C, omecamtiv mecarbil]     13700 µg/mL
7  COC(=O)N1CCN(Cc2cccc(NC(=O)Nc3ccc(C)nc3)c2F)CC1 [bis-maleate crystalline salt form A, omecamtiv mecarbil]      3800 µg/mL

* * *

- test: Solubility: excess solid in water, pH 1.0 or pH 4.5 buffer, filtrate analyzed by HPLC-UV
- Format: physicochemical
- conditions: water solubility sample
Structures can show the parent of a compound that is named as a salt.
Below, each entry is listed alongside its reported pH given with the water solubility.
property: pH given with the water solubility

> print(dat)
                                   compound                            property  endpoint.value
1  COC(=O)N1CCN(Cc2cccc(NC(=O)Nc3ccc(C)nc3)c2F)CC1 [Bis-fumarate crystalline salt form C, omecamtiv mecarbil]  pH given with the water solubility             3.1
2  COC(=O)N1CCN(Cc2cccc(NC(=O)Nc3ccc(C)nc3)c2F)CC1 [Hemi-succinate crystalline salt, omecamtiv mecarbil]  pH given with the water solubility             4.7
3  COC(=O)N1CCN(Cc2cccc(NC(=O)Nc3ccc(C)nc3)c2F)CC1 [Mesylate crystalline salt form A, omecamtiv mecarbil]  pH given with the water solubility            1.39
4  COC(=O)N1CCN(Cc2cccc(NC(=O)Nc3ccc(C)nc3)c2F)CC1 [Mono-napadisylate crystalline salt, omecamtiv mecarbil]  pH given with the water solubility            2.35
5  COC(=O)N1CCN(Cc2cccc(NC(=O)Nc3ccc(C)nc3)c2F)CC1 [Bis-tartrate crystalline salt form A, omecamtiv mecarbil]  pH given with the water solubility            3.28
6  COC(=O)N1CCN(Cc2cccc(NC(=O)Nc3ccc(C)nc3)c2F)CC1 [Bis-sulfate crystalline salt form B, omecamtiv mecarbil]  pH given with the water solubility             3.5

* * *

Below, each entry is listed alongside its reported pH given with the water solubility.
- test: Solubility: excess solid in water, pH 1.0 or pH 4.5 buffer, filtrate analyzed by HPLC-UV
- Type: physicochemical
- conditions: water solubility sample
Where a name gives a salt, the structure may show the parent alone.
property: pH given with the water solubility

> print(dat)
                                   molecule                            property  endpoint.value
1  COC(=O)N1CCN(Cc2cccc(NC(=O)Nc3ccc(C)nc3)c2F)CC1 [Bis-sulfate crystalline salt form A, omecamtiv mecarbil]  pH given with the water solubility             1.5
2  COC(=O)N1CCN(Cc2cccc(NC(=O)Nc3ccc(C)nc3)c2F)CC1 [bis-maleate crystalline salt form A, omecamtiv mecarbil]  pH given with the water solubility             3.7
3  COC(=O)N1CCN(Cc2cccc(NC(=O)Nc3ccc(C)nc3)c2F)CC1 [Bis-malonate crystalline salt, omecamtiv mecarbil]  pH given with the water solubility            3.69
